Known pIC50 of a selection of compounds
- study-target: Complement factor D (Homo sapiens, UniProt P00746)
- Sequence (P00746 whole entry): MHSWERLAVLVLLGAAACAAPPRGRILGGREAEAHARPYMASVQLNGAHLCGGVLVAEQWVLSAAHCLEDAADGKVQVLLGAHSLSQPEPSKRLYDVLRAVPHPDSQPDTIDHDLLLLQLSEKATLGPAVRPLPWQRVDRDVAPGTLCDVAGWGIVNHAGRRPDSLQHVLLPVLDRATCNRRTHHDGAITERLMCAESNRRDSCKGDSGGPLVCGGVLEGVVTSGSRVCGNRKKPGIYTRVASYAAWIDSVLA
- protocol-details: Factor D Assay: Human Factor D (purified from human serum, Complement Technology, Inc.) at 80 nM final concentration is incubated with test compound at various concentrations for 5 min at room temperature in 50 mM Tris, 1M NaCl, pH 7.5. A synthetic substrate Z-L-Lys-SBz and DTNB (Ellman's reagent) are added to final concentrations of 100 μM each. Absorbance at 405 nm (A405) is recorded at 30 second intervals for 30 min using a microplate spectrophotometer. IC50 values are calculated by nonlinear regression of complement Factor D reaction rates as a function of test compound concentration.
pIC50: −log10 of the molar value.

Study these solved cases before continuing.
| compound | value-type | experimental-result |
| --- | --- | --- |
| CC(=O)c1nn(CC(=O)N2[C@H](C(=O)Nc3cncc(Br)n3)C[C@@]3(C)C[C@@H]23)c2cnc(-c3cnc(C)nc3)cc12 | pIC50 | > 6.00 |
| CC(=O)c1nn(CC(=O)N2[C@H](C(=O)Nc3nc(Br)ccc3C)C[C@@]3(CNC4=NCCO4)C[C@@H]23)c2cnc(-c3cnc(C)nc3)cc12 | pIC50 | > 6.00 |

Could you now look at the following compound, please?
Record summary for COC[C@@]12C[C@@H](C(=O)Nc3nc(Br)ccc3C)N(C(=O)Cn3nc(C(C)=O)c4cc(-c5cnc(C)nc5)ncc43)[C@@H]1C2 : reported pIC50 = > 6.00
